Origin of values: PubChem BioAssay (NCATS)

Test system: CP325
experiment-summary: qHTS profiling for inhibitors of Plasmodium falciparum proliferation (AID 504749); further: nearly all actives have a fitted effect of over 60% in size
measurement-context: P. falciparum in erythrocytes, SYBR Green DNA, 72 h; series mostly up to 12.8 µM
Records with an inconclusive call do not appear. Active and inactive are the calls of the source. The call rests on the fitted dose curve; in most records, active means well fitted inhibition curve with a large enough effect; inconclusive means small, poorly fitted or top-dose-only effect; inactive means flat fitted curve, though single readings scatter.
Bench note: report the call from 1 = active, 0 = inactive

Solved entries (count: 6):
I'd appreciate the recorded outcome for COC1C=CO[C@@]2(C)Oc3c(C)c(O)c4c(O)c(c(C=NN5CCN(C)CC5)c(O)c4c3C2=O)NC(=O)/C(C)=C\C=CC(C)C(O)[C@@H](C)C(O)C(C)[C@H](OC(C)=O)C1C (some centres not stated) from this test.
1

Look up the recorded call for `CC[C@H]1NC(=O)c2cc(S(N)(=O)=O)c(Cl)cc2N1` in this test.
0

Called result for `CCC(C)(C)C(=O)O[C@@H]1C[C@H](C)C=C2C=C[C@H](C)[C@@H](CC[C@H]3C[C@@H](O)CC(=O)O3)[C@H]21`
0

Field: outcome | Entry: CN(C)CCc1c[nH]c2ccc(CC3COC(=O)N3)cc12 (configuration not stated)
0

How did this test come out for `COC(=O)N/N=C/C1=C[N+](=O)c2ccccc2[N+]1=O` ?
0

# fetch the recorded call for C[C@@H]1O[C@H](O[C@@H]2\C=C/C=C\C=C/C=C\C[C@H](C)OC(=O)/C=C\[C@H]3O[C@@H]3C[C@H](O)C[C@]3(O)C[C@@H](O)[C@@H](C(=O)O)[C@H](C2)O3)[C@@H](O)[C@H](N)[C@@H]1O (stereo in doubt) here
0

API: the following record is the query input.
GET /call?item= CC1C2CCC3C4CC=C5CC(N(C)C)CC[C@@]5(C)C4CC[C@@]32CN1C (some centres not stated) returns the recorded outcome of this test.
0
